# System: OVCAR-3 ovarian
# procedure-text: NCI tumour cell line growth inhibition, 48 h
Measured TGI by item

compound: Cc1cccc(NC(=O)Cc2nc3ccccc3s2)c1C
relation-operator: >
TGI [µM]: 100
--
compound: CCCCCCCCCCOC1C(C(C)OCCCN(C)C)OC2OC3(CCCCC3)OC21 (centres undefined)
relation-operator: =
TGI [µM]: 29.1
--
compound: CCCCCCCCCCCCCCCCCCNC(=S)/N=C/c1c(O)cc(C)oc1=O
relation-operator: >
TGI [µM]: 100
--
compound: OCCCCC#Cc1ccccc1C#Cc1cccs1
relation-operator: =
TGI [µM]: 28.9
